Published IC50 for Platelet-derived growth factor receptor beta (Homo sapiens, UniProt P09619), assembled from different documents, is shown next.

// compound "Nc1cn2nc(C#Cc3ccc(NC(=O)c4ccccc4)cc3)ccc2n1" , assay Platelet-derived growth factor receptor beta (Homo sapiens, UniProt P09619), IC50 value: > 10000 nM

Value (IC50, Platelet-derived growth factor receptor beta (Homo sapiens, UniProt P09619)) for record "Cc1cncc(C(=O)Nc2cccc([C@H](C)Nc3cnc4[nH]ncc4n3)c2)c1" = < 300 nM

Given the compound "CCn1cc2ncc(N[C@@H](C)c3cccc(NC(=O)Cc4ccc(F)cc4)c3)nc2n1" and test system Platelet-derived growth factor receptor beta (Homo sapiens, UniProt P09619), the measured IC50 is < 300 nM

For "CNc1ncc(C(=O)Nc2cccc([C@H](C)Nc3cnc4cnn(C)c4n3)c2)cc1C" on Platelet-derived growth factor receptor beta (Homo sapiens, UniProt P09619), measured IC50 was < 300 nM

Item: "Cc1ncc(C(=O)Nc2cccc([C@H](C)Nc3cnc4cnn(C)c4n3)c2)cc1F" | System: Platelet-derived growth factor receptor beta (Homo sapiens, UniProt P09619) | IC50: < 300 nM

Summary line: "CCc1cncc(C(=O)Nc2cccc([C@H](C)Nc3cnc4cnn(C)c4n3)c2)c1" , Platelet-derived growth factor receptor beta (Homo sapiens, UniProt P09619), reported IC50 = < 300 nM

Recorded IC50 for "Cc1ccc(F)c(NC(=O)N(C)c2ccc(Oc3ccnc(-c4nnco4)c3)cc2)c1" on Platelet-derived growth factor receptor beta (Homo sapiens, UniProt P09619) was ≤ 10000 nM

IC50 for Platelet-derived growth factor receptor beta (Homo sapiens, UniProt P09619) with input "CCn1cc2ncc(N[C@@H](C)c3cc(NC(=O)Cc4cncc(C(F)(F)F)c4)ccc3C)nc2n1" equals < 300 nM

====

The entries below pair compounds with IC50 values for UniProt:P09619, as found in several publications.
State the answer as a number, implicitly in µM.

The observed IC50 for NCC1CC(n2cc(-c3cccc4occc34)c3c(N)ncnc32)C1 (centres unmarked) when tested with UniProt:P09619 stands at 0.94

Value sought: IC50, system UniProt:P09619, item "CCN(CC)CCCNC(=O)c1[nH]c(/C=C2\C(=O)Nc3cc(-c4ccccc4)ccc32)cc1C" . Result: 42.4

# IC50 measured on UniProt:P09619 for item "O=C(N[C@H]1CCCC[C@@H]1O)c1ccc(F)c(/C=C(\F)c2cncc(NC3COC3)c2)c1" = 0.026

Item "CN(C)CCNC(=O)c1[nH]c(/C=C2\C(=O)Nc3ccc(Br)cc32)c2c1CCCC2" ; assay system UniProt:P09619; IC50 reported as 47.6

====

Collected literature values of IC50 measured for Platelet-derived growth factor receptor beta (Homo sapiens, UniProt P09619).

Let me check: "Cc1cncc(C(=O)Nc2cccc([C@H](C)Nc3cncc4c3ccn4-c3cnn(C)c3)c2)c1" , system Platelet-derived growth factor receptor beta (Homo sapiens, UniProt P09619), measured IC50 is 300 to 1000 nM

Query "Cc1cncc(C(=O)Nc2cccc([C@H](C)Nc3cnc4[nH]cnc4n3)c2)c1" on Platelet-derived growth factor receptor beta (Homo sapiens, UniProt P09619); IC50 returned: 300 to 1000 nM

# IC50 measured on Platelet-derived growth factor receptor beta (Homo sapiens, UniProt P09619) for item "CCOC(=O)N1CCN(CCNC(=O)c2cc3nccc(Oc4ccc(NC(=O)Nc5cc(C)ccc5F)c(F)c4)c3s2)CC1" = 14 nM

Item "Cc1ccc(C(=O)N[C@H]2CCCC[C@@H]2O)cc1N[C@@H](C)c1cncc(C#Cc2ccccc2)c1" was tested on Platelet-derived growth factor receptor beta (Homo sapiens, UniProt P09619); the reported IC50 is 230 nM

Entry "CN(C(=O)Nc1ccc(Cl)c(C(F)(F)F)c1)c1cccc(Oc2ccnc(-c3nnco3)c2)c1" under Platelet-derived growth factor receptor beta (Homo sapiens, UniProt P09619) had IC50 of ≤ 10000 nM

Platelet-derived growth factor receptor beta (Homo sapiens, UniProt P09619) IC50 of "CCn1cc2ncc(N[C@@H](C)c3cc(NC(=O)Cc4ccccc4)ccc3F)nc2n1" is < 300 nM

// compound "CCn1cnc2ccc(C(=O)Nc3cccc([C@H](C)Nc4cnc5cnn(C)c5n4)c3)cc21" , assay Platelet-derived growth factor receptor beta (Homo sapiens, UniProt P09619), IC50 value: < 300 nM

Readout IC50 for "Cc1cncc(C(=O)Nc2cccc([C@H](C)Nc3cnc4ncccc4n3)c2)c1" , test system Platelet-derived growth factor receptor beta (Homo sapiens, UniProt P09619), was ≥ 1000 nM
